# system_under_test: T1, 犬IL-31RA ECD-10His (犬 (canine))
# T1 chain: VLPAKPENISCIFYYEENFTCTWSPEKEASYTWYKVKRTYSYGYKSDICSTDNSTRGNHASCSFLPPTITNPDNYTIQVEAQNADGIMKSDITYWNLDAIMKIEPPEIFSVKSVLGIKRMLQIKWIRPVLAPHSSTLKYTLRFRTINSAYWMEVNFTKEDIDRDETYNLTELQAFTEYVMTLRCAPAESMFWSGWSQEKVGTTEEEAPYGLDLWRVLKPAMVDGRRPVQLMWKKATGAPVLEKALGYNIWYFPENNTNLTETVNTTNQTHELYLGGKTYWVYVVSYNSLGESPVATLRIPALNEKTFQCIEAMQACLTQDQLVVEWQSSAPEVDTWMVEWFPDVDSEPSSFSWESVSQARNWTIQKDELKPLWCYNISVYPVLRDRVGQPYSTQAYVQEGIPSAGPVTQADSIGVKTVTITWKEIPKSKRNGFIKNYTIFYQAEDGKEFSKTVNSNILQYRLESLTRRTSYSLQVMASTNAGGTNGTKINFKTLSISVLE
# experiment: Octet BLI, biotinylated canine IL-31RA on SA biosensor, mAb 100-3.13 nM, 1:1 model
Entries and their measured pKd follow.
pKd is a log-scale quantity: -log10 of the concentration expressed in molar.

Recorded results for 2 binders are shown here.
INSERT INTO measurements (binder, observed_measurement) VALUES
  ('65G9 (antibody, V domains shown) VH: EFQLQQSGPELVKPGASVKISCKASGYSFTDYGMNWLKQINGKSLEWIAIINPNYGTASSNPKFKDKATLTVDHSSSTAYMQLSSLTSEDSAVYYCARAFDGYYFYWYFDVWGTGTTVTVSS VL: SIVMTQTPKFLLVSAGDRVTITCKASQSVTNDVTWYQQKPGQSPKLLIFSASNRYTGVPDRFTGSGYGTDFTFTISTVQAEDLAVYFCQQDYSSPWTFGGGTKLEIK', 9.35),
  ('224G3 (antibody, V domains shown) VH: EVQLVESGGDLVKPGGSLKLSCAASGFTFSSYGMSWVRQTPDKRLEWVATISNGGSYTYYPDSVKGRFTISRDNAKNTLYMQMSSLKSEDTAMYYCARNEPPDYWGQGTSVTVSS VL: DIQMTQSPASLSVSVGETVTITCRASENIYSSLAWYQQKQGKSPQLLVYAATNLADGVPSRFSGSGSGTQYSLKINSLQSEDSGNYYCQHFRDTPPTFGGGTKLEIK', 12.02);

# ---- query binder ----
**Q:** Any idea what pKd was measured for 209G5 (antibody, V domains shown) VH: EVQLQQSVAELVRPGASVKLSCTASGFNIKNTYMHWVKERPEQGLEWIGRIDPANGNSKYAPKFQGKATITTDTSSNTAYLQLSSLTSEDTAIYYCARYYYVSSHFDVWGTGTTVTVSS VL: DIKMTQSPSSMYASLGERVTITCKASQDINSYLNWFQQKPGKSPKTLIYRADRLVDGVPSRFSGSGSGQDYSLTISSLEYEDMGIYYCLQYDEFPLTFGDGTKLELN ?
**A:** 9.88
